For each of the molecules below, state its log10(IC50).
biological target: TGF-beta receptor type-1 (Homo sapiens); assay: In vitro inhibitory activity against human Transforming growth factor beta-1 receptor kinase (TGF-beta RIK)
Could you please treat all values as log10 of IC50 in nM?

Known log10(IC50) results, listed for orientation:
COc1ccc(-c2cn(C)nc2-c2cccc(C)n2)cc1 = 1.64
FC(F)(F)c1cccc(-c2n[nH]cc2-c2ccnc3ccccc23)c1 = 2.34

Below are 5 molecules. Give each one its log10(IC50).
1. Fc1ccc(-c2n[nH]cc2-c2ccnc3ccccc23)nc1
2. Cc1cccc(-c2[nH]ncc2-c2ccc(F)c(F)c2)n1
3. Clc1ccc(-c2n[nH]cc2-c2ccnc3ccccc23)nc1
4. c1csc(-c2n[nH]cc2-c2ccnc3ccccc23)c1
5. c1ccc(-c2c[nH]nc2-c2ccnc3ccccc23)nc1

1. 1.96
2. 2.18
3. 3.25
4. 2.55
5. 2.18

----------
biological target: Mitogen-activated protein kinase 14 (Homo sapiens); assay: In vitro inhibitory activity against Mitogen-activated protein kinase p38
Sequence (Q16539 whole entry): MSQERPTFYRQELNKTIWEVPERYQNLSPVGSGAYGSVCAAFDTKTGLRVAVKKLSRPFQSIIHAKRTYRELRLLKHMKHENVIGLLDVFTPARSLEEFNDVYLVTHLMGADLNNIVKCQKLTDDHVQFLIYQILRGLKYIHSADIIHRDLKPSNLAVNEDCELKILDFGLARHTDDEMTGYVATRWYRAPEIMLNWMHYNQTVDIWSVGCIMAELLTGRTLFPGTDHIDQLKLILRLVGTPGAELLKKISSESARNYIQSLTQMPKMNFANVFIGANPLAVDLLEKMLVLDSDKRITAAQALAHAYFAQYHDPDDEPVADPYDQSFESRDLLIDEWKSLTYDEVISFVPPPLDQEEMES
Consider the following compounds; for each one, report its pIC50.
One number for each entry, as −log10 of the molar value.

c1ccc(Cn2cc(-c3ccnc4ccccc34)c(-c3ccccn3)n2)cc1 = 6.29
Cc1cccc(-c2n[nH]cc2-c2ccc(O)cc2)n1 = 6.25
c1ccc(-c2n[nH]cc2-c2ccnc3ccccc23)cc1 = 7.60

We now examine a further compound.
Given COc1ccc(-c2cn(C)nc2-c2cccc(C)n2)cc1 , respond with its pIC50.
5.27

----------
biological target: TGF-beta receptor type-1 (Homo sapiens, UniProt P36897); assay: In vitro inhibition of transforming growth factor- beta dependent luciferase production in mink lung cells (p3TP Lux); type: functional, cell-based
Sequence (P36897 whole entry): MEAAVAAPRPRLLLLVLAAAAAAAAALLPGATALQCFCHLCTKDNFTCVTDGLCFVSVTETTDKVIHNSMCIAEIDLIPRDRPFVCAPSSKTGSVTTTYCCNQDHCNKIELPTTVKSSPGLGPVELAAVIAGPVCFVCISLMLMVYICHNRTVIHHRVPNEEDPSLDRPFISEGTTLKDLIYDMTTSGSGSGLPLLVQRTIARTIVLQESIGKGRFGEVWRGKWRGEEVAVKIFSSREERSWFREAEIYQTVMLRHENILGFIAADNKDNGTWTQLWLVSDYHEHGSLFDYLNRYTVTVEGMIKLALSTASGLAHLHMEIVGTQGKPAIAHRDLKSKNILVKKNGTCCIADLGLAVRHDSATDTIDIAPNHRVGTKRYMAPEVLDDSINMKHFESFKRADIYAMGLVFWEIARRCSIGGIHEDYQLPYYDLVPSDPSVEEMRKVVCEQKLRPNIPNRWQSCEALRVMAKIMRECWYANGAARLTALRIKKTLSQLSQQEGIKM
Give pIC50 for every item shown.
Give bare numbers, as −log10 of the molar value.

Solved cases below.
c1ccc(-c2c[nH]nc2-c2ccnc3ccccc23)nc1 = 6.17
c1ccc(-c2n[nH]cc2-c2ccnc3ccccc23)cc1 = 5.92

State pIC50 on TGF-beta receptor type-1 (Homo sapiens, UniProt P36897). Entry: Cc1cccc(-c2[nH]ncc2-c2ccc(F)c(F)c2)n1
6.10

----------
biological target: UniProt P36897; assay: In vitro inhibitory activity against human Transforming growth factor beta-1 receptor kinase (TGF-beta RIK)
ASSAY_METRIC: pIC50
Give bare numbers, as −log10 of the molar value.

Here's what some known entries look like.
c1ccc(-c2c[nH]nc2-c2ccccn2)cc1 = 5.40
Cc1cccc(-c2n[nH]c(C)c2-c2ccnc3ccccc23)n1 = 7.09

Report pIC50, nothing else, for this compound: Cc1cccc(-c2n[nH]cc2-c2ccc(O)cc2)n1
7.51
